The values you see were collected from patent US20240116985A1.

tested-system: full-length beta-Catenin (Uniprot ID P35222) (Homo sapiens)
Construct: 10 nM full-length beta-Catenin (Uniprot ID P35222)
Sequence (P35222 whole entry): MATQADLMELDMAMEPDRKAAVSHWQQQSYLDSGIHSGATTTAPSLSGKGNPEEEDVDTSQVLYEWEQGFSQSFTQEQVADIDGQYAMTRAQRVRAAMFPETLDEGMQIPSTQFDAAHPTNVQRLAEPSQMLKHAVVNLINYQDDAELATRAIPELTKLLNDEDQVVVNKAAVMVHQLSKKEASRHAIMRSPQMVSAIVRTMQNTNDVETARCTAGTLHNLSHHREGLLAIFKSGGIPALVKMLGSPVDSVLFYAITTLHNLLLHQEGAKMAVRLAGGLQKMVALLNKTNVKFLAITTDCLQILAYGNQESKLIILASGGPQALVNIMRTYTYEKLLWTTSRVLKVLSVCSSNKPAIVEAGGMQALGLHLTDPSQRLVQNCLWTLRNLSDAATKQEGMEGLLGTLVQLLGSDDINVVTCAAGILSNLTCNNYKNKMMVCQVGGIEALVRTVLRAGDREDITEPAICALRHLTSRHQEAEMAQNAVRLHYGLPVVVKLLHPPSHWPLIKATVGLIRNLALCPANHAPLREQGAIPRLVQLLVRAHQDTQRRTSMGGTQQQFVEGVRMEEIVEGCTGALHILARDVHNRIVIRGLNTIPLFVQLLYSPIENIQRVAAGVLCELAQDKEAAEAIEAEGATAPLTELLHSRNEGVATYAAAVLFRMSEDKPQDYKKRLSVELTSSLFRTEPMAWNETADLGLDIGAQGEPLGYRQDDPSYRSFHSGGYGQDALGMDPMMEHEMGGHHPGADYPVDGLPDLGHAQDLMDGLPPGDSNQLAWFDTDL
method-notes: Fluorescence polarization IC50 (beta-catenin / 5FAM-TCF4 10-53 competition)
Format: binding
measurement-conditions: fluorescence polarization; read-out: beta-Catenin FP IC50
pIC50: −log10 of the molar value.
So basically: pIC50 at 8 or higher? That is satisfied. Lower than 8? That is not satisfied.

Past entries and their recorded results:
compound	label-value
COc1ccccc1C[C@H](NC(=O)[C@]1(C)CCCCCCC=CCCCC2(CCCC=CC[C@]3(CCCN3C(C)=O)C(=O)N[C@@H](CC(=O)O)C(=O)N[C@@H](C)C(=O)N2)C(=O)N[C@@H](CC(=O)O)C(=O)N[C@@H](CCC(=O)O)C(=O)N[C@@H](C)C(=O)N[C@@H](C)C(=O)N[C@@H](Cc2ccccc2)C(=O)N[C@@H](CCC(N)=O)C(=O)N1)C(=O)N[C@@H](Cc1csc2ccccc12)C(=O)N[C@@H](CCC(N)=O)C(N)=O (stereo partly drawn) [I-525]	not satisfied
CC(=O)N1CCC[C@]12CCCCCCC1(CCCCCCCCOC(=O)N3CC[C@@](C(=O)N[C@@H](Cc4ccsc4)C(=O)N[C@@H](Cc4csc5ccccc45)C(=O)N[C@H](C(N)=O)C(C)C)(C3)NC(=O)[C@H](CC(C)C)NC(=O)[C@H](Cc3ccccc3)NC(=O)[C@H](C)NC(=O)[C@H](CCCCNC(C)C)NC(=O)[C@H](CN(CC(=O)O)CC(F)(F)F)NC(=O)[C@H](CC(=O)O)NC1=O)NC(=O)[C@H](CC(C)(C)C)NC(=O)[C@H](CC(=O)O)NC2=O (stereo partly drawn)	not satisfied

Exam item: Reported pIC50 at or above 8? CC(=O)N1CCC[C@]12CC=CCCCC1(CCCC=CCCCOC(=O)N3CC[C@@](C(=O)N[C@@H](Cc4ccsc4)C(=O)N[C@@H](Cc4csc5ccccc45)C(=O)N[C@@H](CCC(N)=O)C(N)=O)(C3)NC(=O)[C@H](CC(C)C)NC(=O)[C@H](Cc3ccccc3)NC(=O)[C@H](C)NC(=O)[C@H](C)NC(=O)[C@H](CC(=O)O)NC(=O)[C@H](CC(=O)O)NC1=O)NC(=O)[C@H](Cc1ccc(O)cc1)NC(=O)[C@H](CC(=O)O)NC2=O (stereo partly drawn)
Marked response: satisfied

Exam item: Reported pIC50 at or above 8? CC(=O)N1CCC[C@]12CC=CCCCC1(CCCC=CCCCOC(=O)N3CC[C@@](C(=O)N[C@@H](Cc4ccsc4)C(=O)N[C@@H](Cc4csc5ccccc45)C(=O)N[C@@H](C)C(N)=O)(C3)NC(=O)[C@H](CC(C)C)NC(=O)[C@H](Cc3cccc(F)c3)NC(=O)[C@H](C)NC(=O)[C@H](C)NC(=O)[C@H](Cc3cccc(C(=O)O)c3)NC(=O)[C@H](CC(=O)O)NC1=O)NC(=O)[C@H](CC(C)(C)C)NC(=O)[C@H](CC(=O)O)NC2=O (stereo partly drawn)
Marked response: not satisfied

Exam item: Reported pIC50 at or above 8? CC(=O)N1CCC[C@]12CC=CCCCC1(CCCC=CCCCCCC[C@@](C)(C(=O)N[C@@H](Cc3cccc(C)c3)C(=O)N[C@@H](Cc3csc4ccccc34)C(=O)N[C@@H](CCC(N)=O)C(N)=O)NC(=O)[C@H](C(C)C)NC(=O)[C@H](Cc3ccccc3)NC(=O)[C@H](C)NC(=O)[C@H](C)NC(=O)[C@H](CCC(=O)O)NC(=O)[C@H](CC(=O)O)NC1=O)NC(=O)[C@H](C)NC(=O)[C@H](CC(=O)O)NC2=O (stereo partly drawn)
Marked response: not satisfied
